# System: HL-60(TB) leukemia
# experimentNotes: NCI tumour cell line growth inhibition, 48 h
measuredMetric: TGI (µM)
I only need the number, in µM, no unit after it.

Looking up COc1cc(/C=C/c2ccc(C)cc2)cc(OC)c1OC , I see its TGI listed as 21.9

Continuing:
Looking up CCC(=O)N1C/C(=C/c2ccc(Cl)cc2)C(=O)/C(=C/c2ccc(Cl)cc2)C1 , I see its TGI listed as 5.03

Looking up COc1cc2c3c(n(CCCN)c(=O)c2cc1OC)-c1ccc([N+](=O)[O-])cc1C3=O , I see its TGI listed as 37.8

Looking up O=C(/C(=C(/O)c1ccccc1)c1nc2ccccc2sc1=O)c1ccccc1 , I see its TGI listed as 20.7

---

# System: MDA-MB-231 breast
# experimentNotes: NCI tumour cell line growth inhibition, 48 h
Measured TGI accompanies every entry in the list below.

Looking up CN1/C(=C/C=C/C=C/C=C2C(=O)c3ccccc3C2=O)C(C)(C)c2ccccc21 , I see its TGI listed as > 100 µM

Looking up C=CC(=O)N1CCC(c2ccc(C(N)=O)c(-c3ccc(Oc4ccccc4)cc3)n2)CC1 , I see its TGI listed as > 100 µM

Looking up COc1c(C(C)=O)c(OCCCCOc2c(C(C)=O)c(OC)c3ccoc3c2OC)c(OC)c2occc12 , I see its TGI listed as > 100 µM

---

Measured TGI accompanies every entry in the list below.
# Test system: NCI-H226 lung
# experimentNotes: NCI tumour cell line growth inhibition, 48 h
I only need the number, in µM, no unit after it.

Some entries whose results are on file:
Entry Cc1ccc(/C=C/c2c(C(=O)/C=C/c3ccccc3)c(C)nc3ccccc23)cc1 , tested on NCI-H226 lung, has a reported TGI of 3.46

Entry COc1ccc(-c2cc(=O)n(-c3nc4ccccc4[nH]3)[nH]2)cc1OC , tested on NCI-H226 lung, has a reported TGI of 67.1

Entry O=[N+]([O-])/C=C/c1c(Cl)cccc1Cl , tested on NCI-H226 lung, has a reported TGI of 50.6

Now for the molecule whose TGI we want.
Entry Cn1cccc1-c1ccc(-c2ccc(CO)[se]2)[se]1 , tested on NCI-H226 lung, has a reported TGI of 5.89

---

# Tested on: U251 CNS
Give one outcome, nothing more. List: active, inactive

These solved cases illustrate the format of a correct answer.
# input Given CO/N=C(\COc1ccc2c(=O)c3ccccc3oc2c1)c1ccccc1 , state the outcome it received in this test.
# output inactive

# input Given NC(=N\N=C/c1ccc(O)cc1)/C(N)=N\N=C/c1ccc(O)cc1 , state the outcome it received in this test.
# output inactive

# input Given CCOc1ccc2c(-c3ccnc(Nc4cc(OC)cc(C(F)(F)F)c4)n3)cnn2n1 , state the outcome it received in this test.
# output inactive

# input Given Cc1ccc(/C=C(\C#N)c2cc3ccccc3n2C)cc1 , state the outcome it received in this test.
# output active

# input Given CN(C)c1ccc(Nc2c3ccccc3nc3ccccc23)cc1 , state the outcome it received in this test.
# output inactive

Kindly consider the entry below.
# input Given N#Cc1nc(-c2ccc(F)cc2)oc1S(=O)(=O)N1CCCCC1 , state the outcome it received in this test.
# output inactive

---

# System: SF-539 CNS
# experimentNotes: NCI tumour cell line growth inhibition, 48 h; in the data active = GI50 below about 0.43 µM; inactive = the rest
Give one outcome, nothing more. List: active, inactive

These solved cases illustrate the format of a correct answer.
# input Given O=C1CCc2c(sc3[nH]c(=S)n(-c4cc(C(F)(F)F)cc(C(F)(F)F)c4)c(=O)c23)C1 , state the outcome it received in this test.
# output active

# input Given C/C(=C\c1ccn(-c2ccccc2N)n1)[C@@H]1C[C@@H]2O[C@]2(C)CCC[C@H](C)[C@H](O)[C@@H](C)C(=O)C(C)(C)[C@@H](O)CC(=O)O1 , state the outcome it received in this test.
# output active

# input Given COc1cc2c3c(n(CCCN)c(=O)c2cc1OC)-c1ccc([N+](=O)[O-])cc1C3=O , state the outcome it received in this test.
# output inactive

# input Given COc1cc(-c2nc3ccccc3s2)ccc1OCCCCOc1cc2c(cc1OC)C(=O)N1CCC[C@H]1C=N2 , state the outcome it received in this test.
# output inactive

# input Given Fc1ccc(-c2ncn(C3CCNCC3)c2-c2ccnc(Oc3ccc4c(c3)OCO4)n2)cc1 , state the outcome it received in this test.
# output inactive

Continuing:
# input Given Cc1cn2c(/C=C3/C(=O)Nc4c3ccc3ccccc43)c(C(F)(F)F)nc2s1 , state the outcome it received in this test.
# output inactive

# input Given COc1ccc([C@H](CC(=O)O)N2CCN(CCCc3ccc4c(n3)NCCC4)C2=O)cn1 , state the outcome it received in this test.
# output inactive

# input Given [2H]C([2H])([2H])NC(=O)c1nnc(NC(=O)C2CC2)cc1Nc1cccc(-c2ncn(C)n2)c1OC , state the outcome it received in this test.
# output inactive

# input Given Nc1ccn(C2CC(F)C(CO)O2)c(=O)n1 (stereo not given) , state the outcome it received in this test.
# output inactive

---

# Tested on: BT-549 breast
# experimentNotes: NCI tumour cell line growth inhibition, 48 h
measuredMetric: TGI

Some entries whose results are on file:
Looking up Cn1cccc1-c1ccc(-c2ccc(CO)[se]2)[se]1 , I see its TGI listed as > 78.5 µM

Looking up Fc1ccc(-c2ncn(C3CCNCC3)c2-c2ccnc(Oc3ccc4c(c3)OCO4)n2)cc1 , I see its TGI listed as > 25 µM

Looking up CN1C(=O)c2ccc3ccccc3c2C1=O , I see its TGI listed as > 100 µM

Continuing:
Looking up COc1cccc(N=N/C(=N/NC(=O)c2ccc(C)cc2)c2ccc(N(CCC#N)CCC#N)cc2OC)c1 , I see its TGI listed as > 100 µM

---

Measured TGI accompanies every entry in the list below.
# Test system: M14 melanoma
# experimentNotes: NCI tumour cell line growth inhibition, 48 h

Some entries whose results are on file:
Entry FC(F)(F)c1cc(N(C2c3ccccc3C=Cc3ccccc32)P(Cl)Cl)cc(C(F)(F)F)c1 , tested on M14 melanoma, has a reported TGI of 58 µM

Entry O=C1c2cc(Cc3ccccc3)c(=O)c(Cc3ccccc3)cc2C(=O)c2cc(Cc3ccccc3)c(=O)c(Cc3ccccc3)cc21 , tested on M14 melanoma, has a reported TGI of > 100 µM

Entry COC(=O)c1c2c(c(C)[n+]([O-])c1C)C(=O)C=C(NCc1ccccc1)C2=O , tested on M14 melanoma, has a reported TGI of 1.87 µM

Entry C=C1C(=O)O[C@H]2[C@H]1CC/C(COC(=O)CCCCCC(=O)OC/C1=C/CC[C@@]3(C)O[C@H]3[C@H]3OC(=O)C(=C)[C@@H]3CC1)=C\CC[C@@]1(C)O[C@@H]21 , tested on M14 melanoma, has a reported TGI of 8.29 µM

Entry CC1CC[C@@]2(OC1)O[C@H]1[C@H](O)[C@H]3[C@@H]4CC[C@H]5C[C@@H](OC6OC(CO)C(OC7OC(CO)C(O)C(OC8OCC(O)C(O)C8O)C7OC7OC(CO)C(O)C(O)C7OC7OC(CO)C(O)C(O)C7O)C(O)C6O)[C@H](O)C[C@]5(C)[C@H]4CC[C@]3(C)[C@H]1[C@@H]2C (stereo partly drawn) , tested on M14 melanoma, has a reported TGI of > 10 µM

Entry N#CC(CCN1CCC(Nc2ccccc2)(c2nnnn2C2CCCCC2)CC1)(c1ccccc1)c1ccccc1 , tested on M14 melanoma, has a reported TGI of > 100 µM

Continuing:
Entry O=C(O)C(Cc1cnc[nH]1)N1C(=O)c2ccccc2C1=O (stereo not drawn) , tested on M14 melanoma, has a reported TGI of > 100 µM

Entry O=c1cc(-c2ccccn2)[nH]c2cccc(F)c12 , tested on M14 melanoma, has a reported TGI of > 100 µM

---

# Test system: NCI-H23 lung
# experimentNotes: NCI tumour cell line growth inhibition, 48 h
measuredMetric: log10(TGI) (log10 of the value in µM)
Heads up: the numbers are on a log10 scale; they represent TGI in µM.

Some entries whose results are on file:
Looking up CC[C@@]1(O)C(=O)OCc2c1cc1n(c2=O)Cc2c-1nc1ccc(O)cc1c2[Si](C)(C)C(C)(C)C , I see its log10(TGI) listed as -1.56

Looking up O=C(CCN1CCOCC1)/C(=C/c1ccccc1)c1ccccc1 , I see its log10(TGI) listed as 1.15

Continuing:
Looking up COC(C/C(=C/CO[Si](C(C)C)(C(C)C)C(C)C)C(=O)N(COCC[Si](C)(C)C)c1ccccc1I)OC , I see its log10(TGI) listed as 1.90

Looking up Oc1c(C(Nc2ccccc2Br)c2ccccc2)ccc2cccnc12 (configuration not stated) , I see its log10(TGI) listed as 1.43

Looking up C=CC(=O)N1C/C(=C\c2ccc(Cl)c(Cl)c2)C(=O)/C(=C/c2ccc(Cl)c(Cl)c2)C1 , I see its log10(TGI) listed as -0.36

Looking up C=C1CC(CC)(CCN2C(=O)c3ccccc3C2=O)OC1=O (configuration not stated) , I see its log10(TGI) listed as 1.48

Looking up CC1=CC2C(C(O)CC3(C)C2CC(C)C32OCOC23COCO3)C2(C)C/C(=C/O)C(=O)C=C12 (configuration not stated) , I see its log10(TGI) listed as 0.58

Looking up COc1ccc([C@H](CC(=O)O)N2CCN(CCCc3ccc4c(n3)NCCC4)C2=O)cn1 , I see its log10(TGI) listed as 0.61

Looking up Cc1ccc2nc3ccccc3c(NCc3ccc(Cl)cc3)c2c1 , I see its log10(TGI) listed as 1.08
